# ASSAY_PROCEDURE: Oral bioavailability in rat
# Type: ADME, organism-based
# EXPERIMENTAL_PARAMETERS: in vivo
Task for the reader: assign each of the following compounds its reported bioavailability.

Take a look at these entries with their results.
| COMPOUND | bioavailability |
| --- | --- |
| NC(=O)c1cccc2cn(-c3ccccc3)nc12 | 41% |
| NC(=O)c1cccc2cn(-c3ccc4c(c3)CCNC4)nc12 | 22% |
| NC(=O)c1cccc2cn(-c3ccc([C@@H]4CCCNC4)cc3)nc12 [NIRAPARIB] | 65% |
| CNCc1ccc(-n2cc3cccc(C(N)=O)c3n2)cc1 | 23% |
| CN1CCN(Cc2ccc(-n3cc4cccc(C(N)=O)c4n3)cc2)CC1 | 11% |
| NC(=O)c1cccc2cn(-c3ccc([C@H]4CCCNC4)cc3)nc12 | 47% |

Below: the item to evaluate.
Q. I would be grateful if you could share the reported bioavailability for NC(=O)c1cccc2cn(-c3ccc(C4CCCNC4)cc3)nc12 (configuration not stated) .
A. 74%

---

# TESTED_ON: CYP1A2 (Rattus norvegicus)
# Sequence (P04799 whole entry): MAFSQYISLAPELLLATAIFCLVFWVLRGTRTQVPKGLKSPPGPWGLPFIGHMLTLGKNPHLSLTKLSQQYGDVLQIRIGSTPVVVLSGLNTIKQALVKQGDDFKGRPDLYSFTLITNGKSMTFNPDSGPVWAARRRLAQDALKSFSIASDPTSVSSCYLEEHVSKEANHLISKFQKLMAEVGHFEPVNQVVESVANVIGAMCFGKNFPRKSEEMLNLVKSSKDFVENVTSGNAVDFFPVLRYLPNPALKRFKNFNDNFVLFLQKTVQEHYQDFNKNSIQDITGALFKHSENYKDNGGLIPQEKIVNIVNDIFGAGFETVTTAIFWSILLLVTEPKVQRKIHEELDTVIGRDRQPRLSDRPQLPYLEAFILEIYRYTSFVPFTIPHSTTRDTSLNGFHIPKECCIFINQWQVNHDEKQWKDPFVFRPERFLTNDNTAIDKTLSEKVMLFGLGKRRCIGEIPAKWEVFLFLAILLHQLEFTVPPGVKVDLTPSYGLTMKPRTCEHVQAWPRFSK
# ASSAY_PROCEDURE: Intrinsic clearance in rat liver microsomes assessed per mg of protein up to 60 mins in presence of rat recombinant CYP1A2
# Type: ADME, Microsome
# EXPERIMENTAL_PARAMETERS: rat liver microsomes with rat recombinant CYP1A2
PARAMETER_MEASURED: microsomal CLint

| COMPOUND | microsomal CLint |
| --- | --- |
| NC(=O)c1cccc2cn(-c3ccc(C4CCCN4)cc3)nc12 (centres undefined) | 2.5 µL/min/mg |
| CNCc1ccc(-n2cc3cccc(C(N)=O)c3n2)cc1 | 6 µL/min/mg |
| CN1CCN(Cc2ccc(-n3cc4cccc(C(N)=O)c4n3)cc2)CC1 | < 0.1 µL/min/mg |

// switching to the query compound
Q. Tell me the measured microsomal CLint of "NC(=O)c1cccc2cn(-c3ccc(CN4CCCCC4)cc3)nc12" , please.
A. 3.8 µL/min/mg

---

# ASSAY_PROCEDURE: Intrinsic clearance in rat liver microsomes assessed per mg of protein in presence of NADPH
# Type: ADME, Microsome
PARAMETER_MEASURED: microsomal CLint
Remember to quote the unit after the number.

Q. Could you tell me which microsomal CLint is on file for "CNCc1ccc(-n2cc3cccc(C(N)=O)c3n2)cc1" ?
A. 28 µL/min/mg

---

# ASSAY_PROCEDURE: Antiproliferative activity against human PrEC cells after 6 to 7 days by cell titer-blue assay
PARAMETER_MEASURED: CC50

Q. Bench note: what CC50 did NC(=O)c1cccc2cn(-c3ccc([C@@H]4CCCNC4)cc3)nc12 [NIRAPARIB] show?
A. > 5 µM

---

Consider the following molecules; for each one, report its CC50.
# Tested on: HeLa
# ASSAY_PROCEDURE: Antiproliferative activity against BRCA1 deficient human HeLa cells after 7 days by cell titer-blue assay
# Type: functional
# EXPERIMENTAL_PARAMETERS: 168 h
Answers are plain numbers, in nM.

Some solved entries appear below for comparison.
| INPUT_SMILES | TESTED_ON | CC50, nM |
| --- | --- | --- |
| NC(=O)c1cccc2cn(-c3ccc(CN4CCOCC4)cc3)nc12 | HeLa | 5300 |
| CCNCc1ccc(-n2cc3cccc(C(N)=O)c3n2)cc1 | HeLa | 1600 |
| NC(=O)c1cccc2cn(-c3ccc(C4CCNCC4)cc3)nc12 | HeLa | 410 |
| NC(=O)c1cccc2cn(-c3ccc(CN4CCCCC4)cc3)nc12 | HeLa | 880 |

Q. Tell me the measured CC50 of "NC(=O)c1cccc2cn(-c3ccc([C@H]4CCCNC4)cc3)nc12" , please.
A. 470

---

# ASSAY_PROCEDURE: Plasma clearance in rat
# Format: ADME, organism-based
Output t for clearance not less than 30 mL/min/kg; output f otherwise.

Q. Textbook exercise: given the entry CNC(C)c1ccc(-n2cc3cccc(C(N)=O)c3n2)cc1 (stereo not given) , state whether its clearance is greater than or equal to 30 mL/min/kg.
A. t

Q. In plain terms: is recorded clearance at least 30 mL/min/kg for "CN(C)Cc1ccc(-n2cc3cccc(C(N)=O)c3n2)cc1" ?
A. t

Q. # bool: clearance of "CN1CCN(Cc2ccc(-n3cc4cccc(C(N)=O)c4n3)cc2)CC1" >= 30 mL/min/kg
A. f

Q. Could you please find out whether "NC(=O)c1cccc2cn(-c3ccc([C@H]4CCCNC4)cc3)nc12" has clearance that meets 30 mL/min/kg or exceeds it?
A. f
